# System: CD20 positive cell line SUDHL4
# PROTOCOL_TEXT: Cell proliferation/cytotoxicity assay (CellTiter-Glo) on SUDHL4 cells
# Type: cell-based, Human
# MEASUREMENT_PARAMETERS: Homo sapiens, SU-DHL-4, 72 h, read-out: EC50 in picoM, SUDHL4
Items are presented alongside their recorded EC50.
ASSAY_ENDPOINT: EC50 (nM)

In [3]: df
Out[3]:
                                   molecule  assay_endpoint  result_modifier  value_reported
0  C[C@]12CC[C@H](O)C[C@H]1CC[C@@H]1[C@@H]2CC[C@]2(C)[C@@H](c3ccc(=O)oc3)CC[C@]12O [Bufalin, reference compound]            EC50                =              16
1  C[C@]12CC[C@H](O)C[C@H]1CC[C@@H]1[C@@H]2CC[C@]2(C)[C@@H](C3=CC(=O)OC3)CC[C@]12O [Digitoxigenin, reference compound]            EC50                >              50

Sourced from patent US20190008983A1
